// data source = patent US20260008760A1

molecular target: DPP1 in HL-60 cells (Homo sapiens, UniProt P53634); test: DPP1 Cell IC50 assay; assay type: cell-based; design: host or cells: HL-60 cells; settings: Avg. IC50 (DPP1 Cell IC50 value ranges), 60 min pre-incubation, H-Gly-Phe-AFC substrate, average of n runs
Sequence (P53634 25-463): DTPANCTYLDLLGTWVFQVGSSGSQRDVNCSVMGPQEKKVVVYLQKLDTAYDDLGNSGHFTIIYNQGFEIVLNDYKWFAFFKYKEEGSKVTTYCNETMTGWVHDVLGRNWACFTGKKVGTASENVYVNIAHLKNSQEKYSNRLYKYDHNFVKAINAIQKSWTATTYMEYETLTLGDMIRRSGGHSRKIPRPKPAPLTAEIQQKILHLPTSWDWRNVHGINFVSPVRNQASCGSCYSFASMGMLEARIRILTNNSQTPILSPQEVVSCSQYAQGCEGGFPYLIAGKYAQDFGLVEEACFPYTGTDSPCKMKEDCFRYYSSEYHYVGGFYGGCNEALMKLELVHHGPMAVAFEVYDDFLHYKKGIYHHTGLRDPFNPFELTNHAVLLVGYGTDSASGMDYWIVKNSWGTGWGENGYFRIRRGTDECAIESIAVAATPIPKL
pIC50: −log10 of the molar value.
property-label: pIC50

Before answering, review these 5 worked examples.
{"columns": ["compound", "pIC50"],
 "data": [
  ["N#C[C@H](Cc1cc2c(cc1F)-c1cc(C3COC3)c(F)cc1CO2)NC(=O)[C@@H]1CNCCCO1", "8.60 to 9.00"],
  ["N#Cc1ccc2c(c1)COc1cc(C[C@@H](C#N)NC(=O)[C@@H]3CNCCCO3)c(F)cc1-2", "8.60 to 9.00"],
  ["N#Cc1ccc2c(c1)COc1c-2ccc(CC(C#N)NC(=O)[C@@H]2CNCCCO2)c1F (stereo partly drawn)", "< 8.60"],
  ["N#C[C@H](Cc1ccc2c(c1)OCc1ccc(C3CCNC3)cc1-2)NC(=O)[C@@H]1CNCCCO1 (stereo partly drawn)", "< 8.60"],
  ["N#C[C@H](Cc1cc2c(cc1F)-c1ccc(F)cc1CO2)NC(=O)[C@@H]1CNCCCO1", "< 8.60"]
]}

Query: Fill blank: measured pIC50 of the compound N#Cc1ccc2c(c1)-c1cc(F)c(CC(C#N)NC(=O)[C@@H]3CNCCCO3)cc1OC2 (stereo partly drawn) is ____.
Result: < 8.60
